organism: Homo sapiens; assay: Liver toxicity in human assessed as induction of drug-induced liver injury by measuring verified drug-induced liver injury concern status
VALUE_KIND: DILI_Concern

# COMPOUND, RECORDED_VALUE
measured = [
    ("O=C([O-])O.[Na+] [SODIUM BICARBONATE]", "No-Dili-Concern"),
    ("CN1C(=O)CCS(=O)(=O)C1c1ccc(Cl)cc1 (stereo not given)", "Most-Dili-Concern"),
    ("CC1=C(/C=C/C(C)=C/C=C/C(C)=C/CO)C(C)(C)CCC1", "Less-Dili-Concern"),
    ("Nc1ccc(S(=O)(=O)c2ccc(N)cc2)cc1", "Less-Dili-Concern"),
    ("COC(=O)C(c1ccccc1)C1CCCCN1 (stereo not given) [METHYLPHENIDATE]", "Less-Dili-Concern"),
    ("C[C@H]1C[C@@H]2[C@H]([C@@H](O)C[C@@]3(C)[C@H]2CC[C@]3(O)C(=O)CO)[C@@]2(C)C=CC(=O)C=C12", "Less-Dili-Concern"),
    ("COCCc1ccc(OCC(O)CNC(C)C)cc1 (stereo not given)", "Less-Dili-Concern"),
    ("O=C1CN(/N=C/c2ccc([N+](=O)[O-])o2)C(=O)N1", "Most-Dili-Concern"),
    ("CC(N)C12CC3CC(CC(C3)C1)C2 (stereo not given)", "No-Dili-Concern"),
    ("Cc1ccnc2c1NC(=O)c1cccnc1N2C1CC1", "Most-Dili-Concern"),
]
